ASSAYED_SYSTEM: Myc proto-oncogene protein (Homo sapiens) (UniProt P01106)
Sequence (P01106 whole entry, looked up): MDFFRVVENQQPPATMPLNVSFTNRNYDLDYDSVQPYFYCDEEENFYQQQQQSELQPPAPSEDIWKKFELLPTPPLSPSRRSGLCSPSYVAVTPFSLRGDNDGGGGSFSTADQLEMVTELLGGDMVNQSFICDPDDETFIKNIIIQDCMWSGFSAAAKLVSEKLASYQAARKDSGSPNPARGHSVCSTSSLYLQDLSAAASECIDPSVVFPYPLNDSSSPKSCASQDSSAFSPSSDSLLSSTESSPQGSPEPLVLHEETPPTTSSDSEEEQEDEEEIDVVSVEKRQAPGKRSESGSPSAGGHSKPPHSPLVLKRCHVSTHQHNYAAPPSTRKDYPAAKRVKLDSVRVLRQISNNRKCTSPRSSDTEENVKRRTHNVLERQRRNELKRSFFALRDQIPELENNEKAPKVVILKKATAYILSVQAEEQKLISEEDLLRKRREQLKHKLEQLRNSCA
ASSAY_INFO: ATG_Myc_CIS: Attagene CIS-FACTORIAL HepG2 Assay for human Myelocytomatosis (Myc) Proto-Oncogene Transcription Factor (AID 2282990)
MEASUREMENT_SETUP: HepG2, Attagene cis-reporter transcription factor activity; actives raise or lower the signal
Activity calls are given as the source filed them. The calls were made as follows: active = hit-call score of the fitted dose curve at least 0.9, where 1 is the maximum; inactive = score below 0.9.
REPORTED_METRIC: outcome

Sample records with outcome:
(Q) Item COC(O)c1ccccc1 (configuration not stated) has what recorded outcome?
(A) inactive

(Q) Also `O=C1NS(=O)(=O)c2ccccc21` ?
(A) inactive

(Q) Also CCO[Si](CCC1CCC2OC2C1)(OCC)OCC (configuration not stated) ?
(A) inactive

(Q) Also `O=C(c1ccccc1)c1ccccc1` ?
(A) inactive

(Q) Also CC(O)COc1ccccc1 (configuration not stated) ?
(A) inactive

(Q) Also `O=S(=O)(O)c1ccccc1` ?
(A) inactive

Now turn to the next molecule.
(Q) Item `O=CC(F)(F)C(F)(F)C(F)(F)C(F)F` has what recorded outcome?
(A) inactive
